Measured log10 IC50, listed per entry for reference.
Biological target: Induced myeloid leukemia cell differentiation protein Mcl-1 (Homo sapiens, UniProt Q07820)
Sequence (Q07820 whole entry): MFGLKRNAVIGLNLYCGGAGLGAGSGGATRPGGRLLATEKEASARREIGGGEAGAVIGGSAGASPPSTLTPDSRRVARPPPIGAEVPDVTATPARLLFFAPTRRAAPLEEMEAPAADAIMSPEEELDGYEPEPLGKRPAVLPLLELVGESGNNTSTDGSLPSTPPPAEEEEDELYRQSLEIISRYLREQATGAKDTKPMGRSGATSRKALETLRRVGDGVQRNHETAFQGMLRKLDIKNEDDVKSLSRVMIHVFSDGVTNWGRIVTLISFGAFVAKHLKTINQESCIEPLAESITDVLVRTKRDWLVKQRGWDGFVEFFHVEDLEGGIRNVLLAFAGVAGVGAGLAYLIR
Assay: Displacement of FAM-Bid peptide from recombinant N-terminal His6x-tagged human Mcl-1 expressed in Escherichia coli BL21 (DE3) incubated for 30 mins by fluorescence polarization assay
// units: µM (pre-log); metric: IC50; scale: log10

Take a look at these entries with their results.
CN(C)Cc1c(O)c(O)cc2oc(=O)ccc12 :: 1.30
O=c1cc(C(F)(F)F)c2cc(O)c(O)cc2o1 :: 0.08
Cc1cc(=O)oc2c([N+](=O)[O-])c(O)ccc12 :: 1.42
O=c1cc(CO)c2ccc(O)c(O)c2o1 :: 1.51
O=c1ccc2cc(O)c(O)cc2o1 [ESCULETIN] :: 0.94
Cc1cc(=O)oc2c(CN(C)C)c(O)c(O)cc12 :: 0.87
COc1ccc2c(CCl)cc(=O)oc2c1O :: 1.49
COc1ccc2c(C)cc(=O)oc2c1O :: 1.23

Moving on to another compound below.
For Induced myeloid leukemia cell differentiation protein Mcl-1 (Homo sapiens, UniProt Q07820), provide log10 IC50 of Cc1cc(=O)oc2c(CN3CCCC3)c(O)c(O)cc12 please.
1.05

* * *

Consider the following compounds and their measured log10 Ki readings.
Target: Induced myeloid leukemia cell differentiation protein Mcl-1 (Homo sapiens)
Assay: Displacement of FAM-Bid peptide from recombinant N-terminal His6x-tagged human Mcl-1 expressed in Escherichia coli BL21 (DE3) incubated for 30 mins by fluorescence polarization assay
Please be aware that the numbers have been log10-transformed from Ki in µM.

For orientation, consider the following solved cases.
O=c1ccc2ccc(O)c(O)c2o1 :: 0.24
O=c1cc(CO)c2cc(O)c(O)cc2o1 :: -0.12
O=c1ccc2c(CN3CCC(O)CC3)c(O)c(O)cc2o1 :: 0.44
CN(C)Cc1c(O)c(O)cc2oc(=O)ccc12 :: 0.68
O=c1ccc2cc(O)c(O)c(CN3CCC(O)CC3)c2o1 :: 0.68
O=c1cc(CCl)c2ccc(O)c(O)c2o1 :: 0.50
CCc1cc2c(C)cc(=O)oc2cc1O :: 0.74
COc1ccc2ccc(=O)oc2c1O :: 0.85

Quick one: log10 Ki of O=C(O)Cc1cc(=O)oc2cc(O)c(O)cc12 ?
0.97

Need log10 Ki, item O=c1cc(-c2ccccc2)c2cc(O)c(O)cc2o1
-0.19

Recorded log10 Ki for Cc1cc(=O)oc2c(CN(C)C)c(O)c(O)cc12 , please?
0.16

Given Cc1cc(=O)oc2cc(O)ccc12 , state its recorded log10 Ki.
1.34

Request the reported log10 Ki associated with O=c1cc(CCl)c2cc(O)c(O)cc2o1
0.02

Name the recorded log10 Ki for O=c1cc(CO)c2ccc(O)c(O)c2o1 .
0.75

* * *

Biological target: Induced myeloid leukemia cell differentiation protein Mcl-1 (Homo sapiens, UniProt Q07820)
Assay: Displacement of FAM-Bid peptide from recombinant N-terminal His6x-tagged human Mcl-1 expressed in Escherichia coli BL21 (DE3) incubated for 30 mins by fluorescence polarization assay
pIC50 for assorted molecules
# log scale: pIC50 equals minus log10 of the concentration in mol/L

Illustrative cases are given below, each with its answer.
COc1ccc2ccc(=O)oc2c1O :: 4.77
O=C(O)Cc1cc(=O)oc2cc(O)c(O)cc12 :: 4.47
Cc1cc(=O)oc2cc(O)ccc12 :: 3.98
[N-]=[N+]=NCc1cc(=O)oc2cc(O)c(O)cc12 :: 4.46
Cc1cc(=O)oc2c(O)c(O)ccc12 :: 4.95

Any idea what its pIC50 is? The molecule is O=c1cc(CCl)c2ccc(O)c(O)c2o1
4.73

Can you look up the measured pIC50 of O=c1ccc2ccc(O)cc2o1 for me?
4.68

Could you share which pIC50 value was measured for O=c1ccc2cc(O)c(O)c(CN3CCC(O)CC3)c2o1 ?
4.66

Endpoint output: pIC50 of O=c1ccc2c(CN3CCC(O)CC3)c(O)c(O)cc2o1 . Value?
4.83

// lookup pIC50 for COc1cc2oc(=O)ccc2cc1O
4.29

Entry under review: COc1cc2ccc(=O)oc2cc1OC . Reported pIC50?
4.60

Given the entry O=c1cc(-c2ccccc2)c2cc(O)c(O)cc2o1 , report its measured pIC50.
5.49

Need pIC50, item COc1cc2cc([N+](=O)[O-])c(=O)oc2c([N+](=O)[O-])c1OC
4.91

Suppose we examine the molecule O=c1ccc2ccc(O)c(O)c2o1 ; what pIC50 value has been reported?
4.93

For the molecule shown here, O=c1cc(CCl)c2cc(O)c(O)cc2o1 , give the reported pIC50.
5.24

Record request: pIC50 value, item O=c1ccc2ccccc2o1
4.61

For the molecule shown here, COc1cc2ccc(=O)oc2c(O)c1O , give the reported pIC50.
4.49

Entry under review: COc1ccc2c(CO)cc(=O)oc2c1O . Reported pIC50?
4.48

Looking for the measured pIC50 of O=c1cc(CO)c2cc(O)c(O)cc2o1 , can you help?
5.40

Record request: pIC50 value, item CCc1cc2c(C)cc(=O)oc2cc1O
4.51

# pIC50 lookup, item CN(C)Cc1c(O)c(O)cc2ccc(=O)oc12
4.27

Looking for the measured pIC50 of Cc1cc(=O)oc2cc(O)c(O)cc12 , can you help?
5.20

Need pIC50 of Cc1cc(=O)oc2cc(O)c(Cl)cc12 , thanks.
4.54

So what's the measured pIC50 for this one? Cc1cc(=O)oc2c(CN3CCC(O)CC3)c(O)c(O)cc12
4.23

Query: pIC50; subject: O=c1ccc2cc(O)ccc2o1 [6-HYDROXYCOUMARIN]
4.08

If you can, please state the reported pIC50 value of COc1cc2ccc(=O)oc2cc1O .
4.65

* * *

Target: Induced myeloid leukemia cell differentiation protein Mcl-1 (Homo sapiens, UniProt Q07820)
Experiment: Displacement of FAM-Bid peptide from recombinant N-terminal His6x-tagged human Mcl-1 expressed in Escherichia coli BL21 (DE3) incubated for 30 mins by fluorescence polarization assay
Reported pKi values for the following molecules.
Quick note: pKi values are minus log10 of concentrations in mol/L.

Please review the entries below; each comes with its answer.
Cc1cc(=O)oc2c(O)c(O)ccc12 :: 5.68
O=c1ccc2cc(O)c(O)cc2o1 :: 5.83
COc1cc2cc([N+](=O)[O-])c(=O)oc2c([N+](=O)[O-])c1OC :: 5.66
Cc1cc(=O)oc2c(CN3CCCC3)c(O)c(O)cc12 :: 5.60
COc1ccc2c(CCl)cc(=O)oc2c1O :: 5.18

Item Cc1cc(=O)oc2cc(O)c(Cl)cc12 has what recorded pKi?
5.28

Quick one: pKi for O=c1ccc2ccccc2o1 ?
5.39

Given the entry CN(C)Cc1c(O)c(O)cc2ccc(=O)oc12 , report its measured pKi.
4.94

# input molecule: COc1ccc2c(C)cc(=O)oc2c1O ; wanted: its pKi
5.62

Requested field: pKi. Item: O=c1ccc2cc(O)ccc2o1 [6-HYDROXYCOUMARIN]
4.62

Recorded pKi for COc1cc2ccc(=O)oc2cc1O , please?
4.87

Please report the recorded pKi for Cc1cc(=O)oc2c([N+](=O)[O-])c(O)ccc12 .
4.97

Form field: reported pKi of COc1cc2oc(=O)ccc2cc1O
4.80

* * *

Biological target: Induced myeloid leukemia cell differentiation protein Mcl-1 (Homo sapiens)
Test: Displacement of FAM-Bid peptide from recombinant N-terminal His6x-tagged human Mcl-1 expressed in Escherichia coli BL21 (DE3) incubated for 30 mins by fluorescence polarization assay
Here the recorded Ki is given for each entry.
Use µM as the unit, but write only the number.

O=c1ccc2ccc(O)cc2o1 [UMBELLIFERONE] :: 3.81
COc1cc2ccc(=O)oc2c(O)c1O [FRAXETIN] :: 5.51
Cc1cc(=O)oc2c(CN3CCC(O)CC3)c(O)c(O)cc12 :: 21.3
[N-]=[N+]=NCc1cc(=O)oc2cc(O)c(O)cc12 :: 9.17
Cc1cc(=O)oc2cc(O)c(O)cc12 [4-METHYLESCULETIN] :: 1.19

Data request, read-out Ki, for O=c1cc(C(F)(F)F)c2cc(O)c(O)cc2o1
0.21

Need Ki, item COc1cc2ccc(=O)oc2cc1OC [SCOPARONE]
9.54

Looking for the measured Ki of COc1ccc2c(CO)cc(=O)oc2c1O , can you help?
7.15
